Recorded percent of cells right of the dashed gate line for the following binders
# SYSTEM UNDER TEST: SARS-CoV-2 S protein trimer expressed on human A431 cells (SARS-CoV-2, UniProt P0DTC2 14-1273)
# PROTOCOL TEXT: flow cytometry on A431 cells expressing SARS-CoV-2 S (A431-CoV-2-S)
MEASUREMENT KIND: percent of cells right of the dashed gate line (%)

>  <BINDER>
8A4 VHH-hFc (Fc fusion, also called 8A4-hFc; NCI-CoV-8A4 VHH-hFc fusion protein) EVQLVESGGGLVQPGESLRLSCEASGFTFSSVYMSWVRQAPGKGLEWISTIHPAGGSTYYADSMKDRFTISRDNAKNTLYLQMNSLKSEDTALYYCIIEALSGYRGPGTQVTVSS

>  <REPORTED RESULT>
99.4

$$$$
>  <BINDER>
8A2 VHH-hFc (Fc fusion, also called NCI-CoV-8A2 VHH-hFc) AVQLVDSGGGSVQAGGSLRLSCAASGYTYSICTMGWYRQAPGEGLEWVSGINADGSNTHYTDSVKGRFTISRDNAKKTLYLQMNSLKPEDTAIYYCAAHGTYDKYAPCGGFAGTYTYWGQGTQVTVSS

>  <REPORTED RESULT>
98.7

$$$$
